Target Entity: Threonine--tRNA ligase (Salmonella enterica) (UniProt A0A3F3IEK2)
Sequence (whole entry): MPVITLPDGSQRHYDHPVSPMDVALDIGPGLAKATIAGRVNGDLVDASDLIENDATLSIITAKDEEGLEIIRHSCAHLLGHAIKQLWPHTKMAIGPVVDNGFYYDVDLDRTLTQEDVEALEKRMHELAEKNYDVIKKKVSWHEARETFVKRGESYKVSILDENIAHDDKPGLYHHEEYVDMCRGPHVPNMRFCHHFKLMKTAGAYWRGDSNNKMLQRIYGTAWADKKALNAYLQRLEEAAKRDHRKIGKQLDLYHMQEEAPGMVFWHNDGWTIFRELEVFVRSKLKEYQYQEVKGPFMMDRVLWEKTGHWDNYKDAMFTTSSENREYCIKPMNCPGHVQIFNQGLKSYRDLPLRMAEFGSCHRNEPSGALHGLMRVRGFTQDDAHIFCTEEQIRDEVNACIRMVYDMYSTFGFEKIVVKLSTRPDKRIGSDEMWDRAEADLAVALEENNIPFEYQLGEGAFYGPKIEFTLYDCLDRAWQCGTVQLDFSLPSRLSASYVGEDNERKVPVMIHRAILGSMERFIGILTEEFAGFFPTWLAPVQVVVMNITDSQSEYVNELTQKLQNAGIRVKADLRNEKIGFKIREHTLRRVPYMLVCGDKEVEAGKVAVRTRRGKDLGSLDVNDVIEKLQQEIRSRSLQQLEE
Test Details: Inhibition of recombinant salmonella enterica threonyl-tRNA synthetase assessed as reduction in enzyme activity at 10 uM incubated for 20 min by Kinase Glo luminescence assay relative to control
Kindly state inhibition for each of the entries shown.
Please report the result as a number followed by the unit.

Give measured inhibition for every item shown.
1. C[C@@H](O)[C@H](N)C(=O)N[C@@H](CNC(=O)CCn1cnc2cc(Br)c(Cl)cc2c1=O)c1cccc(-c2ccc3[nH]ccc3c2)c1
2. C[C@@H](O)[C@@H](N)C(=O)N(CCCCCn1cnc2cc(Br)c(Cl)cc2c1=O)S(=O)(=O)c1cccc(-c2ccc3c(c2)CNC3=O)c1
3. CN[C@H](C(=O)N[C@H](CNC(=O)CCn1cnc2cc(Cl)c(F)cc2c1=O)c1cccc(-c2ccccc2)c1)[C@@H](C)O
4. C[C@@H](O)[C@H](N)C(=O)N(CCC(=O)NCCn1cnc2cc(Br)c(Cl)cc2c1=O)Cc1cccc(-c2ccc3c(c2)CNC3=O)c1

RESULT:
1. 91%
2. 16%
3. 5%
4. 80%
